Ref: PubChem BioAssay

Molecular target: Alpha-bungarotoxin (Bungarus multicinctus)
Test: alpha-bungarotoxin binders on microarray, profiling panel, artefact control for SMM control protein annotation, biochemical, small-molecule microarray, Alexa647 label, 635/667 nm fluorescence (AID 1117)
Conditions: alpha-BTX-A647 binding fluorescence, higher = more signal
Readout Kind: composite z-score
Answer with a number only.

# example entries with known answers
[[record]]
compound = "Cc1ccc(F)cc1S(=O)(=O)N[C@@H]1CCN(Cc2ccc3[nH]ccc3c2)C1"
measured_on = "Alpha-bungarotoxin (Bungarus multicinctus)"
readout_kind = "composite z-score"
measured = 0.431

[[record]]
compound = "CO[C@H]1O[C@H](CO)[C@@H](OC(=O)Nc2ccccc2)[C@@H]2OC(=O)[C@H](Cc3ccccc3)C/C=C/C[C@@H](Cc3ccccc3)C(=O)O[C@@H]12"
measured_on = "Alpha-bungarotoxin (Bungarus multicinctus)"
readout_kind = "composite z-score"
measured = 0.269

[[record]]
compound = "CCC[C@@H]1[C@@H](Sc2ccccc2)[C@@H](C(=O)O)[C@H](c2ccc(C)cc2)N1S(=O)(=O)c1ccc(C)cc1"
measured_on = "Alpha-bungarotoxin (Bungarus multicinctus)"
readout_kind = "composite z-score"
measured = 1.41


Task: Kindly state the measured composite z-score obtained for `CC(C)C(=C=CC[C@@H](O)c1ccc(OCCO)cc1)CCO` with Alpha-bungarotoxin (Bungarus multicinctus).
Output: 0.441

Task: Kindly state the measured composite z-score obtained for `COC(=O)[C@@]1(Cc2ccc(OC)cc2)[C@H]2c3cc(C(=O)N(C)C)n(Cc4ccsc4Br)c3C[C@H]2CN1C(=O)c1ccccc1` with Alpha-bungarotoxin (Bungarus multicinctus).
Output: 0.177

Task: Kindly state the measured composite z-score obtained for `O=C1O[C@H](c2ccccc2)[C@H](c2ccccc2)N2[C@H]1[C@@H](C(=O)NC[C@H](O)c1ccccc1)[C@]1(C(=O)Nc3ccc(C#CCCO)cc31)[C@H]2c1ccccc1OCCO` with Alpha-bungarotoxin (Bungarus multicinctus).
Output: 2.1

Task: Kindly state the measured composite z-score obtained for `CC1(C)OC[C@@]23C=C(Br)[C@@H](C[C@H]12)[C@@]1(CO1)C3=O` with Alpha-bungarotoxin (Bungarus multicinctus).
Output: 0.179

Task: Kindly state the measured composite z-score obtained for `CCOC(=O)C1=CC[C@@H](c2ccccc2Cl)N(S(=O)(=O)c2ccc(C)cc2)[C@H]1c1cccc(OC)c1` with Alpha-bungarotoxin (Bungarus multicinctus).
Output: 0.253
